Just for reference, patent US20110286916A1 is where these values come from.

# tgt: T1, human full-length Notch1 with C-terminal FLAG tag, stably expressed on 293 FlpIn (TREx) cells (human, UniProt P46531 19-2555)
# T1 construct: tetracycline/doxycycline-induced expression from pcDNA5/FRT/TO-HN1+FLAG; also called hN1; 293_N1
# protocol-notes: FACS, phage scFv

binder: hN1S3-053 (scFv, V domains shown, phage scFv) VH: EVQLVQSGAEVKKPGASVKVSCKASGYNFTGYYMHWVRQAPGQGLEWMGWINPNSGGTNYAQKFQGRVTMTRDTSISTAYMELSRLRSDDTAVYYCATDSFDYWGRGTTVTVSS VL: QAVLTQPSSVSGAPGQRVTISCTGSRSNIGAGYDVHWYQQLPGTAPKLLIYGNSNRPSGVPDRFSGSKSGTSASLAITGLQAEDEADYYCQSYDSSLSGSVFGGGTKLTVL
binding result: binds
--
binder: hN1S3-107 (scFv, V domains shown, phage scFv) VH: EVQLVQSGPEVKKPGASVKVSCKASGYTFTDYFLNWVRQAPGQGLEWIGWINPNTGGTNYAQNFQGRVTVTRDASISTAYMELRSLTSADTAIYYCARGAYDYVWGSHRYVADAFDIWGQGTLVTVSS VL: QSVLTQPPSASGTPGQRVTISCSGSSSNIGSNTVNWYQRLPGAAPQLLIYNNDQRPSGIPDRFSGSKSGTSGSLVISGLQSEDEADYYCASWDDSLNGRVFGGGTKLTVL
binding result: binds
--
binder: hN1S3-190 (scFv, V domains shown, phage scFv) VH: QVQLVQSGAEVKKPGASVRISCKTSGFTFTSYFIHWVRQAPGQRPEWMGVINPSRGNADYAPRFRGRVTMTRDKSTHTVYMDLKSLRSDDAAIYYCARDRLGGLLDYYDSSDSSKNFDAFDFWGQGTLVTVSS VL: SSELTQDPAVSVALGQTVRITCQGDSLRSNYPSWYQQKPGQAPLLVIYSENRRPSGIPDRFSASRSGNTASLTITGAQAEDEADYYCHSRGSSGNHKVFGGGTQLTVL
binding result: binds
